# procedure_text: Stat Signaling Pathway (AID 446);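 note: ME-180 cervical cancer cells given 40 pM IL-6 alongside compound; SIE-controlled beta-lactamase reporter measured as 460/530 nm FRET emission ratio; % is set by controls: 0 for no effect and ±100 for the full control effect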
# assay_conditions: ME-180 SIE beta-lactamase reporter, IL-6 stimulated, 5 h; at 17.2 µM (top of the series) unless noted
Inconclusive results are not listed.
outcome_measure: activity, negative = inhibition (%)
Answers are plain numbers, in %.

List activity, negative = inhibition for every entry below, keeping the order given.
1. CC[C@H]1OC(=O)C[C@@H](O)[C@H](C)[C@@H](O[C@@H]2O[C@H](C)C[C@H](N(C)C)[C@H]2O)[C@@H](CC=O)C[C@@H](C)C(=O)C=C[C@]2(C)O[C@H]2[C@@H]1C
2. CC(=O)OCC(=O)[C@H]1CC[C@H]2[C@@H]3CC=C4C[C@@H](O)CC[C@]4(C)[C@H]3CC[C@]12C

result:
1. 1.05
2. -2.21

List activity, negative = inhibition for every entry below, keeping the order given.
1. Cc1cc(=O)oc(C)c1C(=O)NCCC1=CCCCC1
2. CCCc1cc(Nc2c(C)n(C)n(-c3ccccc3)c2=O)n2c(nc3ccccc32)c1C#N
3. Cc1nc(-c2c(-c3ccc(O)cc3O)noc2C(F)(F)F)cs1
4. COC(=O)c1ccc(CN(C(C)=O)c2ccccc2)o1
5. CC(C)CN1C(=O)c2ccc(C(=O)Nc3ccccn3)cc2C1=O
6. CCOC(=O)CC1=NC(=O)CS1
7. COc1ccc(CCn2c(=N)c(C(=O)NCc3ccco3)cc3c(=O)n4ccccc4nc32)cc1OC
8. O=c1cc(N2CCCCC2)nc2n1CCCS2

result:
2.06
0.163
-18.8
7.8
4.97
4.4
-2.08
-10.2

List activity, negative = inhibition for every entry below, keeping the order given.
1. O=C(CSc1nc2ccccc2c(=O)n1CC1CCCCC1)N1CCOCC1
2. O=C(CCN1CCCCC1)Nc1cccc(Cl)c1
3. Cc1cc(C)n(S(=O)(=O)/C=C/c2ccccc2)n1

result:
1: -21.6; 2: -0.895; 3: -7.25

List activity, negative = inhibition for every entry below, keeping the order given.
1. Cc1ccc2cc(CN(C(=O)c3ccco3)c3ccccc3C)c(=O)[nH]c2c1
2. CCN(CC)CCN1C(=O)C(=O)/C(=C(/O)c2ccc(Cl)cc2)C1c1ccncc1 (configuration not stated)
3. COCCNc1cc(C)c(C#N)c2nc3ccccc3n12
4. Cc1nc(SCC(N)=O)[nH]c(=O)c1Cc1ccc(OC(C)C)cc1
5. O=C1CC(NCc2ccc3c(c2)OCO3)C(=O)N1Cc1ccc2c(c1)OCO2 (configuration not stated)
6. Cc1ccc(C(=O)C2C(c3cccs3)NC(=O)NC2(O)C(F)(F)F)cc1 (configuration not stated)

result:
[-12.8, 7.2, 4.06, 8.12, -1.08, 0.646]

List activity, negative = inhibition for every entry below, keeping the order given.
1. Cc1sc(-n2c(C)cc(/C=N/n3cnnc3)c2C)c(C#N)c1C
2. CCC(CC)C1C(C#N)=C(N)Oc2n[nH]c(C)c21 (configuration not stated)
3. O=C(O)C1CCCCN1S(=O)(=O)c1cccc2nsnc12 (configuration not stated)

result:
[-17, -16.5, 5.88]

====

# System: CP305
# procedure_text: qHTS profiling for inhibitors of Plasmodium falciparum proliferation (AID 504749); note: nearly all actives have a fitted effect of over 60% in size
# assay_conditions: P. falciparum in erythrocytes, SYBR Green DNA, 72 h; series mostly up to 28.7 µM
Records with an inconclusive call do not appear. Calls of active or inactive are those of the source. The call rests on the fitted dose curve; in most records, active means well fitted inhibition curve with a large enough effect; inconclusive means small, poorly fitted or top-dose-only effect; inactive means flat fitted curve, though single readings scatter.
Parameter call: string, one of 1 for active, 0 for inactive

compound	discrete_label
CC(c1ncncc1F)[C@](O)(Cn1cncn1)c1ccc(F)cc1F (stereo partly drawn)	0

query: Test call for this compound, please: CCCCCCCCCCCCCCCC(=O)OC[C@H](O)[C@H]1OC[C@@H](O)[C@@H]1O
result: 0

query: Test call for this compound, please: CC1(C)SC2C(NC(=O)C(C(=O)O)c3ccccc3)C(=O)N2C1C(=O)O (stereo not drawn)
result: 0

query: Test call for this compound, please: Nc1ncn(C2C[C@H](O)[C@@H](CO)O2)c(=O)n1 (stereo partly drawn)
result: 0

query: Test call for this compound, please: OCC(O)C(O)C(O)C(O)CO (stereo not drawn)
result: 0

====

# Tested on: CP269
# procedure_text: qHTS profiling for inhibitors of Plasmodium falciparum proliferation (AID 504749); note: nearly all actives have a fitted effect of over 60% in size
# assay_conditions: P. falciparum in erythrocytes, SYBR Green DNA, 72 h; series mostly up to 28.7 µM
Records with an inconclusive call do not appear. Activity calls are given as the source filed them. Calls come from the whole dose curve; as a rule, active = well fitted inhibition curve with a large enough effect; inconclusive = small, poorly fitted or top-dose-only effect; inactive = flat fitted curve, though single readings scatter.
Parameter call: string, one of active, inactive

compound	discrete_label
Nc1nc(/C(=C/CC(=O)O)C(=O)NC2C(=O)N3C(C(=O)O)=CCSC23)cs1 (centres undefined)	inactive

query: Test call for this compound, please: CC[C@@]1(O)CC2CN(CCc3c([nH]c4ccccc34)[C@](C(=O)OC)(c3cc4c(cc3OC)N(C)C3[C@@](O)(C(=O)OC)C(OC(C)=O)[C@]5(CC)C=CCN6CC[C@@]43C65)C2)C1 (some centres undefined)
result: active

query: Test call for this compound, please: CCCCCCCCCCCCCCCC(=O)OCC(COP(=O)(O)OCC[N+](C)(C)C)OC(=O)CCCCCCCCCCCCCCC (centres undefined)
result: inactive

query: Test call for this compound, please: O=C1[C@@H]2C[C@@H]3C[C@H]1C[C@@](O)(C3)C2
result: inactive

query: Test call for this compound, please: CN(C)CC/C=C1\c2ccccc2COc2ccc(CC(=O)O)cc21
result: inactive

query: Test call for this compound, please: CO/N=C(/C(=O)N[C@@H]1C(=O)N2C(C(=O)O)=C(CSc3cnns3)CS[C@H]12)c1csc(N)n1
result: inactive

query: Test call for this compound, please: CC1CN(c2c(F)c(N)c3c(=O)c(C(=O)O)cn(C4CC4)c3c2F)CC(C)N1 (centres undefined)
result: inactive

query: Test call for this compound, please: CO[C@H]1OC2O[C@@]3(C)CC[C@H]4[C@H](C)CC[C@@H]([C@H]1C)[C@@]24OO3 (some centres undefined)
result: active

query: Test call for this compound, please: CCC(=O)O[C@]1(C(=O)CCl)[C@@H](C)CC2C3C[C@H](F)C4=CC(=O)C=CC4(C)[C@@]3(F)C(O)CC21C (some centres undefined)
result: active

====

# procedure_text: AP1 Signaling Pathway (AID 357);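 note: ME-180 reporter cells stimulated with EGF at its EC50 level; % is set by controls: 0 for no effect and ±100 for the full control effect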
# assay_conditions: ME-180 (cervical carcinoma) AP-1-bla reporter, EGF-induced, beta-lactamase ratio, 5 h; at 17.2 µM (top of the series) unless noted
# Method: NCGC Assay Overview: Activator protein-1 (AP-1), a transcription factor, plays an important role in tumor genesis by regulating genes involved in cell proliferation, differentiation, apoptosis, and angiogenesis. AP-1 activity is induced by a complex network of signaling pathways that involves extracellular signals, such as growth factors. […] Library compounds were measured for their ability to modulate positively or negatively the action of EC50 EGF on reporter gene activity. […]
Results filed as inconclusive are left out.
outcome_measure: activity change, negative = inhibition (%)
One number for each entry, in %.

compound	activity change, negative = inhibition [%]
O=C(c1ccc(=O)oc1)N1CCOCC1	17.3
COC(=O)CN(c1cc(OC)ccc1OC)S(=O)(=O)c1ccc(OC)c(OC)c1	-25.5
COC(=O)C(NC(C)=O)(Nc1nc2ccc(S(C)(=O)=O)cc2s1)C(F)(F)F (stereo unspecified)	-0.134
NC(Cc1ccc(Oc2ccc(O)cc2)cc1)C(=O)O (stereo unspecified)	-2.36
CC(NC(=O)Nc1cccnc1)(C(F)(F)F)C(F)(F)F	-12.1
Cc1cc(C)n(C(=O)CN2C(=O)CCC2=O)n1	14.2
CCc1cc(=O)oc2cc(C)c(CN3CCCC3)c(O)c12	-8.92
COc1ccc(N2CCN(C3CC(=O)NC3=O)CC2)cc1 (stereo unspecified)	-0.252
COC(=O)c1ccc(OC(=O)c2ccc(OC)c(OC)c2)c(OC)c1	-0.243
COc1ccc(OC)c(C2/C(=C(/O)c3ccc(C)cc3)C(=O)C(=O)N2Cc2ccco2)c1 (stereo unspecified)	-0.882

List activity change, negative = inhibition for every entry below, keeping the order given.
1. CCC(CC)c1nc2cc(OC)c(OC)cc2c(=O)o1
2. Cc1cc(=O)oc(C)c1C(=O)N1CCN(Cc2ccc3c(c2)OCO3)CC1

result:
1: -1.43; 2: 6.44

List activity change, negative = inhibition for every entry below, keeping the order given.
1. CCN(CC)CCN1C(=O)c2ccccc2NC1c1cc(OC)c(OC)c(OC)c1 (stereo unspecified)
2. CN(C)/C=C1\N=C(c2cccs2)OC1=O

result:
[8.96, 4.03]

List activity change, negative = inhibition for every entry below, keeping the order given.
1. COc1ccc2c(c1OC)C(=O)OC2c1c(O)nc(SC)n(-c2ccccc2)c1=O (stereo unspecified)
2. CCOc1ccc(Cc2nc(N)nc(N)n2)cc1
3. COc1cc(C2C(C#N)=C(N)Oc3cc(C)n(CCN4CCOCC4)c(=O)c32)cc(OC)c1OC (stereo unspecified)
4. CCC(=O)O[C@@H]1CC(=O)O[C@H](C)CC=CC=C[C@@H](O)[C@H](C)C[C@H](CC=O)[C@H](O[C@H]2O[C@H](C)[C@@H](O[C@H]3C[C@@](C)(O)[C@@H](OC(=O)CC)[C@H](C)O3)[C@H](N(C)C)[C@H]2O)[C@H]1OC
5. C=CCn1c(N)c(C(=O)OC(C)(C)C)c2nc3ccccc3nc21
6. CC1(C)Cc2c(sc3[nH]c(=S)n(Cc4ccco4)c(=O)c23)CO1
7. c1ccc(CSc2nnc(SCc3ccccn3)s2)nc1

result:
1. -1.4
2. -3.76
3. 10.6
4. 1.11
5. -16.9
6. -2.74
7. -9.4
